Provide the recorded melting point for the entries that follow.
Where a name gives a salt, the structure may show the parent alone.

(Q) What measured melting point goes with CN(C(=O)OC(C)(C)C)[C@H]1CCN(C(=O)c2ccc(-c3[nH]nc4c3C(=O)c3c(NC(=O)NN5CCOCC5)cccc3-4)s2)C1 (as salt: TFA) ?
(A) > 300 °C

(Q) What measured melting point goes with COc1ccc(-c2[nH]nc3c2C(=O)c2c(NC(=O)CN4CCN(c5ccccn5)CC4)cccc2-3)cc1 ?
(A) > 300 °C

(Q) What measured melting point goes with O=C(Nc1cccc2c1C(=O)c1c-2n[nH]c1-c1ccc(C(=O)N2CCC[C@H]2CNc2ccccc2)s1)NN1CCOCC1 (as salt: TFA) ?
(A) > 300 °C

====

Provide the recorded melting point for the entries that follow.
Structures can show the parent of a compound that is named as a salt.

(Q) What measured melting point goes with NC(=O)Nc1cccc2c1C(=O)c1c-2n[nH]c1-c1ccsc1 ?
(A) > 280 °C

(Q) What measured melting point goes with CCc1[nH]nc2c1C(=O)c1c(NC(N)=O)cccc1-2 ?
(A) > 250 °C

(Q) What measured melting point goes with Cc1ccc(-c2[nH]nc3c2C(=O)c2c(NC(N)=O)cccc2-3)s1 ?
(A) > 280 °C

(Q) What measured melting point goes with CNC(=O)Nc1cccc2c1C(=O)c1c-2n[nH]c1-c1ccc(OC)cc1 ?
(A) > 300 °C

(Q) What measured melting point goes with CC(=O)Nc1cccc2c1C(=O)c1c-2n[nH]c1-c1cccnc1 ?
(A) > 300 °C

(Q) What measured melting point goes with Cn1ccc(-c2[nH]nc3c2C(=O)c2c(NC(N)=O)cccc2-3)c1 [Example CXII] ?
(A) > 300 °C

(Q) What measured melting point goes with O=C(Nc1cccc2c1C(=O)c1c-2n[nH]c1-c1ccc(C(=O)N2CCCC2)s1)NN1CCOCC1 (as salt: TFA) ?
(A) > 300 °C

(Q) What measured melting point goes with CCOC(=O)c1ccc(-c2[nH]nc3c2C(=O)c2c(NC(N)=O)cccc2-3)s1 ?
(A) > 280 °C
